# maps each entry to its apparent KD of MS2 coat protein
tested on: MS2 coat protein; test: apparent KD of MS2 coat protein; designed switch direction (-1 OFF switch, 1 ON switch): 1; higher = weaker reporter binding; details: input ligand: FMN 200 uM
Experimental Readout: apparent KD of MS2 coat protein (nM)

INSERT INTO measurements (sequence_text, experimental_readout, units_label, val) VALUES
  ('GAAAAACAUGAGGAUCACCCAUGUGUAAACAAGGGAGGAUAUACAAAGACGUAAGUCAAAGUAGAAGGCCUAAAAG [Garnet 38] (Eterna round: R96, puzzle: Same State 1)', 'apparent KD of MS2 coat protein', 'nM', 19.6),
  ('AGAUCAUGACGAGGAUAUGGUACAUGAGGAUCACCCAUGUAUGUAUCAUAACGCGAAUGACGAAACCAGAAGGCGUCGUGGUCA [JL SSNG2 1.11] (Eterna round: R96, puzzle: Same State NG 2)', 'apparent KD of MS2 coat protein', 'nM', 10.2),
  ('AGCUAGUACCGAGGAUAUACGUACAUGAGGAUCACCCAUGUAUACAUGAAAUAAUGAGACUACAUGUAGAAGGCGGUACUAGCA [Mat - Same State NG 2 - JL mod - D50] (Eterna round: R96, puzzle: Same State NG 2)', 'apparent KD of MS2 coat protein', 'nM', 14.2),
  ('UGGUACAUGGGAGGAUAUCAUGUAGAAACAUGAGGAUCACCCAUGUGGAUGGAGACAUCGGAGAUUGAGAAGGCCCAUGUACCU [JL SSNG1 3.56] (Eterna round: R96, puzzle: Same State NG 2)', 'apparent KD of MS2 coat protein', 'nM', 15.6),
  ('GGUAUUAACACAGGAUAUGCUUACGAAACGUAAGCAGAAGGGUGAACAUGAGGAUCACCCAUGUUUGUACCAGGGCGUGAGCCC [JL SSNG1 1.72] (Eterna round: R96, puzzle: Same State NG 1)', 'apparent KD of MS2 coat protein', 'nM', 349);

###

system: MS2 coat protein; experiment: apparent KD of MS2 coat protein; designed switch direction (-1 OFF switch, 1 ON switch): -1; higher = weaker reporter binding; conditions: input ligand: FMN 200 uM
# cutoff 0.06 µM applies to apparent KD of MS2 coat protein; >= gives yes (1), < gives no (0)

INSERT INTO results (sequence_text, class_label) VALUES
  ('AGUCAGACGGUAGGAUAUCCAUAUCGAGUGACCCUUUCAUAACAUGAGGAUCACCCAUGUCGGUGGGAGAAGGGCCGUACGGCG [JL ViennaUCT Atra mod 5] (Eterna round: R96, puzzle: Exclusion NG 2)', 'yes (1)'),
  ('GGUGCACAUGAGGAUCACCCAUGUCAGGAUAUGUUACCACGUUACGAUCGAGUGACGAGCAGAAGGGACUGCAU [Eternabot (L2) Solution 68] (Eterna round: R97, puzzle: Exclusion 1)', 'no (0)'),
  ('CCAGCGGACAAAGGAUAUUGCGGUGACCGGCUCGGCGUACCGAGCCUACAUGAGGAUCACCCAUGUAAGAAGGUUGUCGUAGGA [Mat - Exclusion NG 2 - Mod of JL - D73] (Eterna round: R96, puzzle: Exclusion NG 2)', 'no (0)'),
  ('CCAAGCUUAUUCAUUAACCACAUGAGGAUCACCCAUGUAUAGGCAAUUAUGACUGGGCAAUGUGGUGCUCGUCUUAU [Sensor-V1 #28] (Eterna round: R97, puzzle: Sensor, turn-off variant 1)', 'no (0)'),
  ('GGUUUGGGAGGAUAUGGUUUUAAUAACAUGAGGAUCACCCAUGUAAAUAGAUCCUCGAGGCCAGAAGGCUCGGGCC [-24.9, -23.72 kcal, A 28%] (Eterna round: R97, puzzle: Exclusion 5)', 'yes (1)');

###

Here, each record is paired with measured apparent KD of MS2 coat protein data.
tested on: MS2 coat protein; assay: apparent KD of MS2 coat protein; designed switch direction (-1 OFF switch, 1 ON switch): -1; higher = weaker reporter binding; conditions: Eterna round: R95; input ligand: none
Experimental Readout: apparent KD of MS2 coat protein (nM)

INSERT INTO assay_data (sequence_text, units_label, val) VALUES
  ('UUAGUGUGAGGAUAUGGUAAAGAUAAGAUGAUGAAAGAACUCCAGAAGGCACAUGAGGAUCACCCAUGUAGAUU [Mat - Exclusion 4 - Mod of JL - D25] (puzzle: Exclusion 4)', 'nM', 24.2),
  ('AGUUGGCGAGGAUAUACAUGAGGAUCACCCAUGUGAGAGAUACUAGUGAGGUCGAUUAGUAGAAGGCGCUGACG [Mat - Exclusion 3 - Mod of JL D76] (puzzle: Exclusion 3)', 'nM', 49.3),
  ('CUGAGCAGACGGAGAUCCAACAUGAGGAUCACCCAUGUCUCAAAAGCUUUUUGCUUGUCUUAUUCUCCUCUGUUCAC [Enradibe] (puzzle: Sensor v3, turn-off variant 1)', 'nM', 11.2),
  ('GGCCCUAAGGUCAGAUUCACAAGCUUUUUGCUCGUUUUAACAUGAGGAUCACCCAUGUCUAGUGGAUCUGAUCCUCU [Sensor v3, turn-off variant 2 (MOD of Indiso v.1)] (puzzle: Sensor v3, turn-off variant 2)', 'nM', 31.2),
  ('UGUUGGCGAGGAUAUACAUGAGGAUCACCCAUGUGAGAGAAAAAAGUGAGGAAGAAAAGUAGAAGGCGCUGACA [salish99_ex3_r3_045] (puzzle: Exclusion 3)', 'nM', 48.4);

###

test system: MS2 coat protein; test: apparent KD of MS2 coat protein; designed switch direction (-1 OFF switch, 1 ON switch): 1; higher = weaker reporter binding; conditions: Eterna round: R98; input ligand: FMN 200 uM
Experimental Readout: apparent KD of MS2 coat protein (nM)

INSERT INTO measurements (sequence_text, experimental_readout, val) VALUES
  ('UUAUGAGCGAUAGGAUAUACUGAGAUUGAAUGGGUAGAAGGAUCAAUCGUGUGGAAGACAUGAGGAUCACCCAUGUUACGGGCC [SameState #75 NG1]', 'apparent KD of MS2 coat protein', 510),
  ('GGAGACCUCACAGGAUAUGCUGGACUUUGUCCAGCAGAAGGGUGACUAACAUGAGGAUCACCCAUGUAGGUCUCCAAAUUUAAU [Denovo 58]', 'apparent KD of MS2 coat protein', 631),
  ('GCAGAAGGUGCGGAGGAUCACCCUGUAAGGAUAUGCAUUAGCAAGGAUAUACAGAGGAUCACCCUGUAGAAGGUGCACUACUCU [pwkr2 ssNG3 DX.1]', 'apparent KD of MS2 coat protein', 1140),
  ('ACAUAAUGGUGAGGAUAUGCACAGGAUCACCGUGUAGAAGGCAUCAGGUAGAAGGUGCAGAGGAUCACCCUGUAAGGAUAUAUC [pwkr2 ssNG1 DX.19]', 'apparent KD of MS2 coat protein', 94.6),
  ('GGAGCACACAUUAACAUGAGGAUCACCCAUGUCAAAAGACAUGAGGAUAUGGAUCCGAAAAGGAUCCAGAAGGCAUGGUGCUCC [EliMod 8 - Jieux - Same State NG 3]', 'apparent KD of MS2 coat protein', 35.1);

###

Measured apparent KD of K4 kissing-loop reporter, listed per entry for reference.
test system: K4 kissing-loop RNA reporter; experiment: apparent KD of K4 kissing-loop reporter; higher = weaker reporter binding; conditions: Eterna round: R107; input ligand: arginine 13.2 mM;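 also: bound reporter read as fluorescence of individual clusters on recovered sequencing chips by microscopy, with normalized cluster intensities fitted with a binding model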
Experimental Readout: apparent KD of K4 kissing-loop reporter (nM)

INSERT INTO results (sequence_text, assay_target, experimental_readout, val) VALUES
  ('UAAUAUAAUCUGUCGUAAACAAUAAUUAGUCAGGAUAUCGUAUAUUCGAGAAGGGACACUAUCUAGUGAUGUUAGAUAUUUCGUU [JR_SSFMNA_Sub026]', 'K4 kissing-loop RNA reporter', 'apparent KD of K4 kissing-loop reporter', 76.4),
  ('GGAGAGCGGAACGAUACCAGCUGCGGCACGCACCGGAAGUUAAGCCAGUGAUGUUGGCGGAGCCCUUGGCAGCGUGCGCGCGUCC [Abeusma]', 'K4 kissing-loop RNA reporter', 'apparent KD of K4 kissing-loop reporter', 93.3),
  ('ACGUAGUACGUAGGAUAUCAGAGAUCAGUUAGUGAGAUCGAGUGAUGUUCGAUCAAGUGUUCAUUUUGAGAAGGAUGUAGUAGGA [KL-SSFMN-B7]', 'K4 kissing-loop RNA reporter', 'apparent KD of K4 kissing-loop reporter', 320),
  ('UUUUUGGAGAAUUAUAGUGAUGUUAUGAAGGAGGAUAUCUGGAGAUGGAGAAGGCCUAGUGGCUCAGCCAUGGAGGGUGGGUGGG [ExFMNA.aA]', 'K4 kissing-loop RNA reporter', 'apparent KD of K4 kissing-loop reporter', 527),
  ('GAGAGCUCUGGAGGAUAUGAGUCUAGUGAUGUUAGGCGGUCCAUGCGCGUGGCGCGUUAUGCCCUUUUAGAAGGCCAGAGCUCUC [#2 Exclusion - FMN B Attempt #19 (HarryS)]', 'K4 kissing-loop RNA reporter', 'apparent KD of K4 kissing-loop reporter', 69.3),
  ('GCAAUUCUCAGUGAUGUUGAGUAAUCGGAAGGAGCGCGUGAAAACGCAGGUAGGUCGCCGAAACAUGAAGUAUCUUCGUGUUUGC [Arginine A K4 24]', 'K4 kissing-loop RNA reporter', 'apparent KD of K4 kissing-loop reporter', 190);

The values you see were collected from the supplement of paper PMC9170038.
